Biological target: WIZ protein (HiBit-WIZ fusion protein) (Homo sapiens, UniProt O95785+Q96SW2)
Construct: expressed in transfected cells
Sequence (O95785 whole entry, the tested form may be a part): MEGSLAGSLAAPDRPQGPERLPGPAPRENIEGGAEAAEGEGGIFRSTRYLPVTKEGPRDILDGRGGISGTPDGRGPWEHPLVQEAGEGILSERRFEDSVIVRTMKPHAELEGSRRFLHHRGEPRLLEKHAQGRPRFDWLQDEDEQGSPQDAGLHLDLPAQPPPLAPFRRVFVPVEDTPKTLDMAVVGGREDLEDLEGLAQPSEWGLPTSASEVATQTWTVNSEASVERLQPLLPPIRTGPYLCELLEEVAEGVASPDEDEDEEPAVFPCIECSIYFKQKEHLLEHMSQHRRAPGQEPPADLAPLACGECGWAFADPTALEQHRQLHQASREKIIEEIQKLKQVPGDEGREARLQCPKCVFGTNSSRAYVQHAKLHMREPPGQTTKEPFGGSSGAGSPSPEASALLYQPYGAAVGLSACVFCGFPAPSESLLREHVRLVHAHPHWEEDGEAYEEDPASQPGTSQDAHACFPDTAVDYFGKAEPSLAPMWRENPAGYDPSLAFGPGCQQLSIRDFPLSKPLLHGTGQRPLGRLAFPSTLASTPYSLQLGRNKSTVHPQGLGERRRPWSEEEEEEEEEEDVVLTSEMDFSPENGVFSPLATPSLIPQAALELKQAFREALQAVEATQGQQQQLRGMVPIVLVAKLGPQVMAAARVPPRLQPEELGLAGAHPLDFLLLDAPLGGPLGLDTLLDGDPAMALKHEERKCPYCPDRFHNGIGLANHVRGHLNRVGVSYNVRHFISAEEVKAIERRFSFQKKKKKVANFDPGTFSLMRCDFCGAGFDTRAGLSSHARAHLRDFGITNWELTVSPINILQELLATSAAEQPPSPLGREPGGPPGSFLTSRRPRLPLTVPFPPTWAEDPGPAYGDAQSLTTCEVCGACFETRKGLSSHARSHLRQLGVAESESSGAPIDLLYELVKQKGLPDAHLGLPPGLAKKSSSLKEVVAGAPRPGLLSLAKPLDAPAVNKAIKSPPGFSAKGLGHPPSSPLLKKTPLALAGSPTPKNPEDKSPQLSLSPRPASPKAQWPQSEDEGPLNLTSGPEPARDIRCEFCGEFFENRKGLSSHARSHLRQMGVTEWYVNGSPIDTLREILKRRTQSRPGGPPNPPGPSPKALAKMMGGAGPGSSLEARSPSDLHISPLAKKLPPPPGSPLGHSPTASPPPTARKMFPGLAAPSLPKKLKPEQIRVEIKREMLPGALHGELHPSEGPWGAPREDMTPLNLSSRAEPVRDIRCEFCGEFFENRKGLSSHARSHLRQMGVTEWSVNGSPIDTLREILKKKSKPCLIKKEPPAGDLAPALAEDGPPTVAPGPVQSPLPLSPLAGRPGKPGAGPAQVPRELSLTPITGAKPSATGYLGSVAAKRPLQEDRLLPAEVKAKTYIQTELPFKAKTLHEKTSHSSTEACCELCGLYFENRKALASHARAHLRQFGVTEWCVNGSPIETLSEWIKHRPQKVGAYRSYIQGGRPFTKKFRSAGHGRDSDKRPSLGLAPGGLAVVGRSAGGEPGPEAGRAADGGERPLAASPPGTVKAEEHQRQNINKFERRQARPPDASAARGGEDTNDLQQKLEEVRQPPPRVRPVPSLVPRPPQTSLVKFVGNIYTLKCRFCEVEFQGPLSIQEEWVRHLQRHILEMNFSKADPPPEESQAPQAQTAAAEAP
Sequence (Q96SW2 whole entry, the tested form may be a part): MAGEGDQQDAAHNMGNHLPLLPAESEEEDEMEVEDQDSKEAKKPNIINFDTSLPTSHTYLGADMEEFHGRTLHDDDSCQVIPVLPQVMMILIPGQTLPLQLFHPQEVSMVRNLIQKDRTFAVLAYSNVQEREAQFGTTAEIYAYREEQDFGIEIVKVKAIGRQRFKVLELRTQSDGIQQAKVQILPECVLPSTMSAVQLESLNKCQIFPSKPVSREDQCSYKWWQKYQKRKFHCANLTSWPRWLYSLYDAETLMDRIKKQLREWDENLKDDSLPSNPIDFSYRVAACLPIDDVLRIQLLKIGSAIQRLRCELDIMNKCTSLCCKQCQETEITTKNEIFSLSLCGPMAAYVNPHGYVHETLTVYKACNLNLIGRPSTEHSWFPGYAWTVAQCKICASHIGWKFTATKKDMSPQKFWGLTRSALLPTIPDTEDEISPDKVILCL
Sequence (Q16531 whole entry partner, the tested form may be a part): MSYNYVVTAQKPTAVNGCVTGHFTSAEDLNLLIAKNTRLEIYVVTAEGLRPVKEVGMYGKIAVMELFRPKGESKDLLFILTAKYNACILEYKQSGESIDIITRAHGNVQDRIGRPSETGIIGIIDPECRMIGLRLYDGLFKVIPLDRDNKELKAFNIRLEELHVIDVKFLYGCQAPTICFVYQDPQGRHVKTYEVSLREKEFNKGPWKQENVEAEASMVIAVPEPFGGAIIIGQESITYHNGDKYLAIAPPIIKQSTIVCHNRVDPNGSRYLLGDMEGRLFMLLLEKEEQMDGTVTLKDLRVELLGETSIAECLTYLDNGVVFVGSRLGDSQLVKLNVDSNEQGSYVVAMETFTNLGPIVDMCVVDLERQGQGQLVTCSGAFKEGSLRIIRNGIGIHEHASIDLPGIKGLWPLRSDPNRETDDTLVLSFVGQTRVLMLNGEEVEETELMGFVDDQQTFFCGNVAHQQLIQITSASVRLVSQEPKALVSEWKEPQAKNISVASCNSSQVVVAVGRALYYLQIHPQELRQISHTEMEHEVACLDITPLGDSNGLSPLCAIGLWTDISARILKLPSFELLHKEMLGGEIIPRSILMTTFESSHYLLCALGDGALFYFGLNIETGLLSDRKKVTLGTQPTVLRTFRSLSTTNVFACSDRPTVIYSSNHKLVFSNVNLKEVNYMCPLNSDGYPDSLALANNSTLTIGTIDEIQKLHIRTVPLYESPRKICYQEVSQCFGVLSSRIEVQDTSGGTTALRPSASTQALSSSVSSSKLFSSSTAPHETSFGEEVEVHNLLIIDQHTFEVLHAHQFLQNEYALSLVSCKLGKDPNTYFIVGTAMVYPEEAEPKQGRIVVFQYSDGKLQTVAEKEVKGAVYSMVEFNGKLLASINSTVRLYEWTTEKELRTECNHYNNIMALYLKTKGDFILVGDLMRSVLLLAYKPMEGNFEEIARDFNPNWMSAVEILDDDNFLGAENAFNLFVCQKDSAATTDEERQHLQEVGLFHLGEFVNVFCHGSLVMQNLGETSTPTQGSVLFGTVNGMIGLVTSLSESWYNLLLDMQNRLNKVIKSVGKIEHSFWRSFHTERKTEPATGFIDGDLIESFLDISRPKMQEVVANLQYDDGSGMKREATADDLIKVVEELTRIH
Assay: Quantification of WIZ protein levels in HiBit tag fusion protein assay (WIZ HiBit assay in 293T cells)
Assay type: cell-based
Conditions: WIZ HiBit assay in 293T cells; 10-point, 5-fold dose response, highest concentration 25 μM, about 18 hours; read-out: WIZ AC50
Experimental: The HiBit system from Promega was used to develop high-throughput and quantitative assays to measure changes in WIZ protein levels in response to compounds. […] The complementary fragment of Nanoluciferase (known as LgBit, from Promega), was added to the HiBit tag to form an active Nanoluciferase enzyme whose activity can be precisely measured. In this way, the levels of a fusion protein with the HiBit tag can be quantified in cell lysates. […]
QUANTITY KIND: DC50 (nM)

Some solved entries appear below for comparison.
{"COMPOUND": "O=C1CCN(c2cnn3ccc(CC4CCN(Cc5ccc(C(F)(F)F)nc5)CC4)cc23)C(=O)N1 [Example 54]", "MEASURED RESULT": 44}
{"COMPOUND": "CCC(C)S(=O)(=O)N1CCC(Cc2ccn3ncc(N4CCC(=O)NC4=O)c3c2)CC1 (centres unmarked) [Example 86]", "MEASURED RESULT": 27}
{"COMPOUND": "C[C@H]1CN(Cc2ccn3ncc(N4CCC(=O)NC4=O)c3c2)CCN1C1CCC(F)(F)CC1 [Example 334]", "MEASURED RESULT": 32}
{"COMPOUND": "O=C1CCN(c2cnn3ccc(CC4CCN(CC(F)(F)C(F)F)CC4)cc23)C(=O)N1 [Example 31]", "MEASURED RESULT": 27}

(a) O=C1CCN(c2cnn3ccc(CC4CCN(Cc5cccc(F)c5F)CC4)cc23)C(=O)N1 [Example 53]
(b) O=C1CCN(c2cnn3ccc(CC4CCN(CC5CC5)CC4)cc23)C(=O)N1 [Example 5]
(c) CO[C@H]1C[C@@H](CN2CCC(Cc3ccn4ncc(N5CCC(=O)NC5=O)c4c3)CC2)C1 [Example 300]
(d) C[C@H]1CC(F)(Cc2ccn3ncc(N4CCC(=O)NC4=O)c3c2)CCN1C1COC1 (single isomer, unassigned) [Example 311]
With regard to DC50, arrange the entries in ascending order, please. Would you mind listing the labels in the order requested?
c, a, b, d
(c: 3 nM, a: 37 nM, b: 204 nM, d: 310 nM)

* * *

molecular target: WIZ protein (HiBit-WIZ fusion protein) (Homo sapiens, UniProt O95785+Q96SW2); construct: expressed in transfected cells; assay: Quantification of WIZ protein levels in HiBit tag fusion protein assay (WIZ HiBit assay in 293T cells); format: cell-based; details: HEK-293T, DMSO-normalized, curve-fitted percentage of WIZ-HiBit remaining at 25 uM; 293T cells; read-out: WIZ Amax
QUANTITY KIND: remaining activity at 25 µM (%)

Some solved entries appear below for comparison.
{"COMPOUND": "C[C@H]1CN(Cc2ccn3ncc(N4CCC(=O)NC4=O)c3c2)CCN1C[C@H]1CCC(F)(F)C1 [Example 320]", "remaining activity at 25 µM [%]": 21}
{"COMPOUND": "O=C1CCN(c2cnn3ccc(CN4C[C@H]5CC[C@@H](C4)N5Cc4cccnc4)cc23)C(=O)N1 [Example 253]", "remaining activity at 25 µM [%]": 77}

(I) O=C1CCN(c2cnn3ccc(CN4CCN(CC5CCCCCC5)CC4)cc23)C(=O)N1 [Example 158]
(II) O=C1CCN(c2cnn3ccc(CN4CCN5CCCC[C@H]5C4)cc23)C(=O)N1 [Example 262]
Please let me know which one, I or II , has a lower measured remaining activity at 25 µM value. Bench note: the answer is the label of the chosen record.
I
